TARGET_ENTITY: recombinant C-terminally His-tagged human CD47 (extracellular domain) (human) (UniProt Q08722)
Sequence (Q08722 19-141): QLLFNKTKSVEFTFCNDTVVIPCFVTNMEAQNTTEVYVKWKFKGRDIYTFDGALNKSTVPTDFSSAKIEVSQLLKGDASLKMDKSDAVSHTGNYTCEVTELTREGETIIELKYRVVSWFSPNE
MEASUREMENT_DESCRIPTION: SPR, Biacore X100; construct captured by anti-human Fc on CM5 chip, human CD47 extracellular domain as analyte, 1:1 fit
pKd: −log10 of the molar value.
ASSAY_ENDPOINT: pKd

INSERT INTO results (binder, quantitative_readout) VALUES
  ('2D6-022 (bispecific antibody, part only; not given: linkers and anti-TAA IgG1 chains, V domains shown, not shown: another chain or arm of the molecule; large carriers; small tags and cut ends) VH: QVELVQSGPEVKKPGSSVKVSCKASGYTFPSYDINWVRQRPGQGLEWMGWIYPRDGSPKYNEKFKGRVTITADTSTSTAYMELHSLRSEDTAVYYCARSVYYGTQFAYWGQGTLVTVSA VL: DIVLTQSPSSLAVSLGERVTMSCKSSQSLLNSRTRKNYLAWYQQKPGQPPKLLIYWASTRDSGVPDRFSGSGSGTDFTLTISSLQAEDVAVYYCKQSFNLVTFGGGTKLEIK', 6.97),
  ('2D6-032 (bispecific antibody, part only; not given: linkers and anti-TAA IgG1 chains, V domains shown, not shown: another chain or arm of the molecule; large carriers; small tags and cut ends) VH: QVQLVESGGGLVQPGGSLRLSCAASGYTFPSYDINWVRQAPGKGLEWVGWIYPRDGSPKYNEKFKGRFTISADTSKNTAYLQMNSLRAEDTAVYYCARSVYYGTQFAYWGQGTLVTVSS VL: DIVMTQSPSSLSASVGDRVTITCKSSQSLLNSRTRKNYLAWYQQKPGKAPKLLIYWASTRDSGVPDRFSGSGSGTDFTLTISSLQPEDFATYYCKQSFNLVTFGQGTKVEIK', 6.85),
  ('2D6-036 (bispecific antibody, part only; not given: linkers and anti-TAA IgG1 chains, V domains shown, not shown: another chain or arm of the molecule; large carriers; small tags and cut ends) VH: QVELVQSGPEVKKPGSSVKVSCKASGYTFPSYDINWVRQRPGQGLEWMGWIIPRDGSPKYNEKFKGRVTITADTSTSTAYMELHSLRSEDTAVYYCARSVYYGTQFAYWGQGTLVTVSA VL: DIVLTQSPSSLAVSLGERVTMSCKSSQSLLNSRTRKNYLAWYQQKPGQPPKLLIYWASTRDSGVPDRFSGSGSGTDFTLTISSLQAEDVAVYYCKQSFNLVTFGGGTKLEIK', 5.95),
  ('2D6-031 (bispecific antibody, part only; not given: linkers and anti-TAA IgG1 chains, V domains shown, not shown: another chain or arm of the molecule; large carriers; small tags and cut ends) VH: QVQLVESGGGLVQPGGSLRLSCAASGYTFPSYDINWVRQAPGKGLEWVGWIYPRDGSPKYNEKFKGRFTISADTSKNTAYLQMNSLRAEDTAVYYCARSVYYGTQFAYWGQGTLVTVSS VL: DIQMTQSPSSLSASVGDRVTITCKSSQSLLNSRTRKNYLAWYQQKPGKAPKLLIYWASTRDSGVPSRFSGSGSGTDFTLTISSLQPEDFATYYCKQSFNLVTFGQGTKVEIK', 6.86);
